Tested on: Wnt5a (protein binding on small-molecule microarray)
testName: Wnt5a binders on small-molecule microarray, primary screen, biophysical, 635/667 nm fluorescence (AID 1142);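 also: fluorescence read at 667 nm with signal to noise per printed feature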
studyConditions: 635 nm fluorescence, higher = more signal
composite z-score reference
Lab note: write the figure by itself, no unit.

{"columns": ["structureNotation", "subjectOfTest", "composite z-score"],
 "data": [
  ["COc1ccc([Si](C)(C)[C@H]2[C@H](CCO)O[C@@]3(C(=O)N(Cc4ccc(N5CCCCC5=O)cc4)c4ccccc43)[C@@H]2C)cc1", "Wnt5a (protein binding on small-molecule microarray)", -0.0939],
  ["O=C(CS)NCCCCCNC(=O)[C@H]1C[C@H]2C(=O)N[C@@H](Cc3ccccc3)C(=O)N2[C@H]1c1ccc(O)cc1", "Wnt5a (protein binding on small-molecule microarray)", 0.252],
  ["CCOC(=O)[C@H]1C/C=C/C[C@H](C(=O)OCC)C(=O)O[C@H]2[C@@H](OC)O[C@H](CO)[C@@H](OC(=O)Nc3ccc(Br)cc3)[C@@H]2OC1=O", "Wnt5a (protein binding on small-molecule microarray)", 0.172]
]}

Field: next compound
Return value of composite z-score for input O=C(N1CCCCC1)[C@@]1(CCS(=O)(=O)c2ccccc2)N=C(c2ccc(OCCCO)cc2)O[C@H]1c1ccccc1 , no commentary. 1.31

----------
subjectOfTest: Torsin-1A-interacting protein 1 (Homo sapiens) (UniProt Q5JTV8)
Sequence (Q5JTV8 whole entry, looked up): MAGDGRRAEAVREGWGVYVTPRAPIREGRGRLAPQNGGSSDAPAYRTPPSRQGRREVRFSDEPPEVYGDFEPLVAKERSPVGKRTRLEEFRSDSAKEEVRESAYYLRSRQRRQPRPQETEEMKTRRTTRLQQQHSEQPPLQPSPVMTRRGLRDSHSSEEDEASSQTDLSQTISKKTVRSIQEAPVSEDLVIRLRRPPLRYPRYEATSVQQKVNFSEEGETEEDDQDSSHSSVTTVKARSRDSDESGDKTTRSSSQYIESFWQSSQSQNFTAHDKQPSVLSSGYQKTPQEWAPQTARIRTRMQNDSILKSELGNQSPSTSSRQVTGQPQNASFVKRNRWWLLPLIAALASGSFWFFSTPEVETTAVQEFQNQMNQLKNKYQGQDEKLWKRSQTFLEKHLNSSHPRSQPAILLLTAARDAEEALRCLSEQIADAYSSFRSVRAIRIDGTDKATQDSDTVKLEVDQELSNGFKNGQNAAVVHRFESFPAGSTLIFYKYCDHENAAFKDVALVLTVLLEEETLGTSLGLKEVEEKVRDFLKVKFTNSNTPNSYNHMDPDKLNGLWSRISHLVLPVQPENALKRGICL
testName: LAP1 binders from COS7 cell lysate, primary screen, small-molecule microarray, 635/667 nm fluorescence (AID 1116)
studyConditions: COS7-hLAP1 lysate binding, 635 nm fluorescence, higher = more signal
measuredAttribute: composite z-score
Lab note: write the figure by itself, no unit.

Return value of composite z-score for input COCCOC(=O)N1C(=O)[C@@]2(c3cc(C#CC4=CCCCC4)ccc31)[C@H](C(=O)NC[C@H](O)c1ccccc1)[C@H]1C(=O)O[C@H](c3ccccc3)[C@H](c3ccccc3)N1[C@@H]2c1ccccc1OCCO , no commentary. 0.814

Return value of composite z-score for input C=C(CCCC)/C(=C/C[C@H](OC(=O)c1ccncc1)c1cccc(OCCO)c1)c1cc(C(=O)OC)ccc1OC , no commentary. 0.516

Return value of composite z-score for input C=C(COC)C(=O)CC[C@H](OC(=O)c1ccccc1-c1ccccc1C(=O)O)c1cccc(OCCO)c1 , no commentary. 3.73

Return value of composite z-score for input CO[C@@H]1COC(=O)[C@H](C)NC(=O)CC=C[C@@H](C)[C@H](OC)COC(=O)[C@H](C)NC(=O)CC=C[C@H]1C , no commentary. 0.0309

Return value of composite z-score for input O=C1C[C@@](C(=O)NC2CC2)(c2ccc([N+](=O)[O-])cc2)[C@@H](c2ccc(CO)cc2I)N1CC12CC3CC(CC(C3)C1)C2 , no commentary. 0.626

Return value of composite z-score for input COc1cccc([C@H]2N[C@H](C(=O)O)CC[C@@H]2C)c1 , no commentary. 0.0026

----------
Test system: PRMT1 (protein arginine N-methyltransferase 1)
testName: PRMT1 binders on small-molecule microarrays, primary screen, biochemical, small-molecule microarray, 635 nm fluorescence (AID 1088);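 also: binding of Prmt1 protein to compounds spotted on small-molecule microarray slides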
studyConditions: small-molecule microarray binding, higher = more signal
Rule: met for composite z-score not less than -0.1, not met for anything less.

// known answers, use as guide
{"columns": ["molecule", "subjectOfTest", "labelValue"],
 "data": [
  ["O=C1OCCC=C[C@H]2OC34C=CCN(Cc5ccccc5)C(=O)[C@H]3N(CCO)C(=O)[C@@H]4C12 (some centres not stated)", "PRMT1 (protein arginine N-methyltransferase 1)", "not met"],
  ["C=CCN1C(=O)[C@@]2(Cc3ccccc3)N=C(c3ccc(OCCCO)cc3)O[C@H]2c2ccccc21", "PRMT1 (protein arginine N-methyltransferase 1)", "met"],
  ["O=C1OCC=C[C@H]2OC34C=CCN(Cc5ccccc5)C(=O)[C@H]3N(CCCCCO)C(=O)[C@@H]4[C@@H]12 (some centres not stated)", "PRMT1 (protein arginine N-methyltransferase 1)", "not met"],
  ["CC(C)(C)OC(=O)CC[C@]1(C(=O)N2CCCCC2)N=C(c2ccc(OCCCO)cc2)O[C@H]1c1ccccc1", "PRMT1 (protein arginine N-methyltransferase 1)", "met"]
]}

Identify whether the reported composite z-score of the following molecule is -0.1 or greater: NC(=O)[C@H]1[C@@H]2C(=O)O[C@@H](c3ccccc3)[C@@H](c3ccccc3)N2[C@@H](c2ccc(O)cc2)[C@]12C(=O)Nc1ccc(C#CCCO)cc12 not met

Identify whether the reported composite z-score of the following molecule is -0.1 or greater: C[C@@H]1CC[C@H]2C(=O)N3[C@@H](CC[C@@H](C)[C@@H]3c3cccc(N4CCOCC4)c3)C(=O)N2[C@H]1c1cccc(Br)c1 met

Identify whether the reported composite z-score of the following molecule is -0.1 or greater: CCCC[C@@H]1C[C@H]1[C@@H](NC(=O)c1cccs1)c1ccc(Cl)cc1 not met

----------
testName: osmotic lysis modulators in infected erythrocytes, primary screen, PSAC antagonist project, cell-based, P. falciparum Indochina, OD700, 3 h (AID 1156)
studyConditions: called active from +8 up or from −8 down
The source made the active and inactive calls.
Permitted responses: Y = active, N = inactive

{"columns": ["compound", "labelValue"],
 "data": [
  ["CCCC[C@@H]1C[C@H]1[C@@H](NC(=O)c1cccs1)c1ccc(Cl)cc1", "N"],
  ["C=CC[C@]1(C(=O)O)N=C(c2ccc(OCCCO)cc2)O[C@H]1c1ccccc1N=[N+]=[N-]", "N"]
]}

Which outcome did this test record for the compound C=CCN(C(=O)C1N(c2ccc(CCO)cc2)C(=O)C2C(C(=O)O)C3C=CC21O3)C(C)(C)C (stereo not given) ? N

Which outcome did this test record for the compound COc1cc2c(cc1OC)CN(C(=O)[C@H]1[C@@H]3C(=O)O[C@@H](c4ccccc4)[C@@H](c4ccccc4)N3[C@@H](c3ccc(O)cc3)[C@]13C(=O)Nc1ccc(C#CC4(O)CCCCCC4)cc13)CC2 ? N

Which outcome did this test record for the compound COC(=O)Cn1c(C(=O)N2CCCC2)cc2c1C[C@H]1CN(C(=O)c3ccccc3)[C@@](Cc3ccccc3)(C(=O)OC)[C@@H]21 ? N

Which outcome did this test record for the compound COc1ccc([C@H]2C[C@H]3C(Br)=C[C@]2(OC)C(=O)[C@]32CO2)cc1 ? N

Which outcome did this test record for the compound COc1cc([C@@H]2N[C@H](C(=O)O)Cc3c2[nH]c2ccccc32)cc(OC)c1OC ? N

Which outcome did this test record for the compound C/C(=N\O)C(=O)NCCCCCNC(=O)OCc1ccccc1 ? N

Which outcome did this test record for the compound CCCCO[C@H]1C[C@H]2C(Br)=C[C@@]1(CO)C(=O)[C@]21CO1 ? N

----------
testName: MM1S cell viability effects, profiling panel, calcein-AM fluorescence, 48 h, basal (AID 1165);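 also: viability of MM1S multiple myeloma cells under basal unstimulated conditions; test concentration not given here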
studyConditions: higher = more signal
measuredAttribute: z-score
Lab note: write the figure by itself, no unit.

Return value of z-score for input NC(=O)NCC#Cc1ccc2c(c1)[C@]1(C(=O)N2)[C@H](c2ccccc2OCCO)N2[C@H](c3ccccc3)[C@H](c3ccccc3)OC(=O)[C@H]2[C@@H]1C(=O)N1CCN(c2ncccn2)CC1 , no commentary. 0.147

----------
z-score reference
testName: fission yeast growth modulation, primary screen, strain 972, OD600, 24 h, no modulator (AID 1090);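 also: basal condition with compound alone and no growth modifier present; test concentration not given here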
studyConditions: S. pombe 972 growth, higher = more signal, called active from +8 up or from −8 down
Lab note: write the figure by itself, no unit.

Solved cases (6 shown):
{"columns": ["structureNotation", "numericResult"],
 "data": [
  ["COCCOC(=O)N1C(=O)[C@@]2(c3cc(C#CCNC(N)=O)ccc31)[C@H](c1ccc(OCCO)cc1)N1[C@H](c3ccccc3)[C@H](c3ccccc3)OC(=O)[C@H]1[C@@H]2C(=O)N1CCCCCCC1", 0.501],
  ["Cc1ccc(S[C@]2(C(=O)NCCN3CCOCC3)CC(=O)N(C3Cc4ccccc4C3)[C@@H]2c2ccc(CO)cc2I)cc1", -5.05],
  ["O=C1O[C@@H](c2ccccc2)[C@@H](c2ccccc2)N2[C@@H](c3ccccc3OCCO)[C@]3(C(=O)Nc4ccc(C#CC5=CCCCC5)cc43)[C@@H](C(=O)O)[C@H]12", -0.608],
  ["CO[C@H]1COC(=O)CC=C[C@H](C)COC(=O)[C@@H](OCc2ccccc2)C=C[C@@H]1C", -1.39],
  ["CN(C)C(=O)[C@@]1(Cc2ccccc2N=[N+]=[N-])N=C(c2ccc(OCCCO)cc2)O[C@H]1c1ccccc1CN=[N+]=[N-]", -1.62],
  ["CC(C)=C1C(=O)C(c2ccccc2)=C2CN3C(=O)N(CCc4ccccc4)C(=O)[C@]3(Cc3ccccc3)[C@H]21", 0.927]
]}

Return value of z-score for input COc1cccc([C@H]2N[C@H](C(=O)O)CC[C@@H]2C)c1 , no commentary. -0.823

The values you see were collected from PubChem BioAssay.
